target: recombinantly produced human-NGF (human, UniProt P01138 122-241, limits assumed); experiment: ELISA, human NGF coated, IgG titrated
Sequence (P01138 122-241 limits assumed): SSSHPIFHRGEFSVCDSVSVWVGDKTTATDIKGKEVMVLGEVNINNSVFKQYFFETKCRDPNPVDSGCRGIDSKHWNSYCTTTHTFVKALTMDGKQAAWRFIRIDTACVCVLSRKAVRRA
I'd appreciate it if you could supply EC50 values for the items below.
Answers are plain numbers, in ng/mL.

binder="Ab49 (antibody, human IgG1, V domains shown) VH: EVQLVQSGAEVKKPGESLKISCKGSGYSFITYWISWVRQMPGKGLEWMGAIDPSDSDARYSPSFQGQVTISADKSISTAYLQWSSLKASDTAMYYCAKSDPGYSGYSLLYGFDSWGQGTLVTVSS VL: DIVMTQSPLSLPVTLGQPASISCRSSQSLVQRNGNTYLSWYQQRPGQPPRLLIYQVSNRYSGVPDRFSGSGSGTDFTLKISRVEAEDVGVYYCGQGAHLPLTFGQGTKVEIK" result_type=EC50 unit_info=ng/mL value_measured=0.00957

Take each entry in turn and give its EC50.
1. Ab56 (antibody, human IgG1, V domains shown) VH: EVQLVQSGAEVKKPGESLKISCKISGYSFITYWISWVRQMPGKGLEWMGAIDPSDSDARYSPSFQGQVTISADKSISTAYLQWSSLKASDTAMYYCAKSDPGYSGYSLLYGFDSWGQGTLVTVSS VL: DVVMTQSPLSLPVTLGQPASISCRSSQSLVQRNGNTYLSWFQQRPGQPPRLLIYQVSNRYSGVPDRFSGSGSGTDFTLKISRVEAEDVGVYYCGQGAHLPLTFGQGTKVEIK
2. Tanezumab (antibody, part only; not given: constant regions, V domains shown, not shown: another chain or arm of the molecule) VH: QVQLQESGPGLVKPSETLSLTCTVSGFSLIGYDLNWIRQPPGKGLEWIGIIWGDGTTDYNSAVKSRVTISKDTSKNQFSLKLSSVTAADTAVYYCARGGYWYATSYYFDYWGQGTLVTVSS VL: DIQMTQSPSSLSASVGDRVTITCRASQSISNNLNWYQQKPGKAPKLLIYYTSRFHSGVPSRFSGSGSGTDFTFTISSLQPEDIATYYCQQEHTLPYTFGQGTKLEIK

[0.0145, 0.00937]
